This section presents compounds with their documented Ki values.
target: 5-hydroxytryptamine receptor 1D (Homo sapiens); assay: Binding affinity for 5-hydroxytryptamine 1D receptor in Cos-7 transfected cell type using [3H]5-CT as radioligand
Sequence (P28221 whole entry): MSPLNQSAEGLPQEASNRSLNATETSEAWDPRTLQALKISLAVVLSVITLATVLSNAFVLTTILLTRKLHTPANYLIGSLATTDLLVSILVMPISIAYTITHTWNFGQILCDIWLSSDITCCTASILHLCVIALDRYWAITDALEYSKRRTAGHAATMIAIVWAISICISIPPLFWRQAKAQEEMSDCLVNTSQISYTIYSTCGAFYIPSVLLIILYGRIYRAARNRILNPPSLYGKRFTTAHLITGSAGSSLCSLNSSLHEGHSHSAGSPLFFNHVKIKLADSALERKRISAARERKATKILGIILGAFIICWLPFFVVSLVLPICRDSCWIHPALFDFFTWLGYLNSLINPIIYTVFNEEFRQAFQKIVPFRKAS
Supply the numeric figure in nM, leaving out any unit text.

-- ask For COc1ccc(C(=O)Nc2ccc(-c3ccncc3)cc2)cc1CCCN(C)C , what is its reported Ki?
-- reply 540

-- ask Name the reported Ki value associated with the compound COc1ccc(C(=O)Nc2ccc(-c3ccncc3)cc2)cc1C#CCN(C)C
-- reply 1200

-- ask GET /values?readout=Ki&item= COc1ccc(C(=O)Nc2ccc(-c3ccncc3)cc2)cc1C=CCN(C)C
-- reply 169

-- ask Quick one: Ki for COc1ccc(C(=O)Nc2ccc(-c3ccncc3)cc2)cc1/C=C/CN(C)C ?
-- reply 560

-- ask Looking for the measured Ki of CN(C)CCCc1cc(C(=O)Nc2ccc(-c3ccncc3)cc2)ccc1O , can you help?
-- reply 700
